Reported Plant response rating, Rice by item:
- System: rice
- Experiment Notes: Test C flooded paddy test
- Type: in vivo, Oryza sativa
- Cond: 500 g ai/ha, visual rating after 12 to 14 days, scale 0 to 100 (0 no effect, 100 complete control)
- Excerpt: […]
Experimental Endpoint: Plant response rating, Rice

>>> print(df.to_string())
                               smiles_entry  reported_value
0  CCc1nc(C(C)(C)C)sc1C(=O)Nc1cc(C(=O)N(C)C)ccc1F              80
1  CCc1nc(C(C)(C)C)sc1C(=O)Nc1cccc(C(=O)NCCF)c1              65
2  CCn1nc(C2(C)CC2)cc1C(=O)Nc1cc(C(=O)N2CC=CC2)ccc1F              85
3  CC(=O)c1cccc(NC(=O)c2cc(C(C)(C)C)nn2CC(F)(F)F)c1               0
4  CCc1nc(C(C)(C)C)sc1C(=O)Nc1cccc(C(=O)N(C)CC)c1              90
5  CCn1nc(C(C)(C)C)cc1C(=O)Nc1cc(C(=O)NCC2CC2)ccn1              35
6  C=Cn1nc(C(C)(C)C)cc1C(=O)Nc1cccc(C(=O)N(CC)CC)c1              55
7  CCc1nn(C(C)C)nc1C(=O)Nc1cccc(C(=S)N(C)C)c1              60
8  CCn1nc(C(C)(C)C)cc1C(=O)Nc1cccc(OCCCF)c1              40

The reported measurements were obtained from patent US20060069132A1.
